Assay Summary: Drug recovery in cell media after 1 week at 37 degC by HPLC analysis
Assay type: physicochemical
Condition Parameters: read-out: Drug recovery
Value Type: remaining at 168 h

Prompt line: Which measured remaining at 168 h value corresponds to `O=C(/C=C/N1C[C@H]2C[C@@H]1CN2c1ccccn1)c1ccccc1O` ?
Response line: > 90%

----------
Test System: Protein polybromo-1 (Homo sapiens, UniProt Q86U86)
Sequence (Q86U86 whole entry, canonical isoform): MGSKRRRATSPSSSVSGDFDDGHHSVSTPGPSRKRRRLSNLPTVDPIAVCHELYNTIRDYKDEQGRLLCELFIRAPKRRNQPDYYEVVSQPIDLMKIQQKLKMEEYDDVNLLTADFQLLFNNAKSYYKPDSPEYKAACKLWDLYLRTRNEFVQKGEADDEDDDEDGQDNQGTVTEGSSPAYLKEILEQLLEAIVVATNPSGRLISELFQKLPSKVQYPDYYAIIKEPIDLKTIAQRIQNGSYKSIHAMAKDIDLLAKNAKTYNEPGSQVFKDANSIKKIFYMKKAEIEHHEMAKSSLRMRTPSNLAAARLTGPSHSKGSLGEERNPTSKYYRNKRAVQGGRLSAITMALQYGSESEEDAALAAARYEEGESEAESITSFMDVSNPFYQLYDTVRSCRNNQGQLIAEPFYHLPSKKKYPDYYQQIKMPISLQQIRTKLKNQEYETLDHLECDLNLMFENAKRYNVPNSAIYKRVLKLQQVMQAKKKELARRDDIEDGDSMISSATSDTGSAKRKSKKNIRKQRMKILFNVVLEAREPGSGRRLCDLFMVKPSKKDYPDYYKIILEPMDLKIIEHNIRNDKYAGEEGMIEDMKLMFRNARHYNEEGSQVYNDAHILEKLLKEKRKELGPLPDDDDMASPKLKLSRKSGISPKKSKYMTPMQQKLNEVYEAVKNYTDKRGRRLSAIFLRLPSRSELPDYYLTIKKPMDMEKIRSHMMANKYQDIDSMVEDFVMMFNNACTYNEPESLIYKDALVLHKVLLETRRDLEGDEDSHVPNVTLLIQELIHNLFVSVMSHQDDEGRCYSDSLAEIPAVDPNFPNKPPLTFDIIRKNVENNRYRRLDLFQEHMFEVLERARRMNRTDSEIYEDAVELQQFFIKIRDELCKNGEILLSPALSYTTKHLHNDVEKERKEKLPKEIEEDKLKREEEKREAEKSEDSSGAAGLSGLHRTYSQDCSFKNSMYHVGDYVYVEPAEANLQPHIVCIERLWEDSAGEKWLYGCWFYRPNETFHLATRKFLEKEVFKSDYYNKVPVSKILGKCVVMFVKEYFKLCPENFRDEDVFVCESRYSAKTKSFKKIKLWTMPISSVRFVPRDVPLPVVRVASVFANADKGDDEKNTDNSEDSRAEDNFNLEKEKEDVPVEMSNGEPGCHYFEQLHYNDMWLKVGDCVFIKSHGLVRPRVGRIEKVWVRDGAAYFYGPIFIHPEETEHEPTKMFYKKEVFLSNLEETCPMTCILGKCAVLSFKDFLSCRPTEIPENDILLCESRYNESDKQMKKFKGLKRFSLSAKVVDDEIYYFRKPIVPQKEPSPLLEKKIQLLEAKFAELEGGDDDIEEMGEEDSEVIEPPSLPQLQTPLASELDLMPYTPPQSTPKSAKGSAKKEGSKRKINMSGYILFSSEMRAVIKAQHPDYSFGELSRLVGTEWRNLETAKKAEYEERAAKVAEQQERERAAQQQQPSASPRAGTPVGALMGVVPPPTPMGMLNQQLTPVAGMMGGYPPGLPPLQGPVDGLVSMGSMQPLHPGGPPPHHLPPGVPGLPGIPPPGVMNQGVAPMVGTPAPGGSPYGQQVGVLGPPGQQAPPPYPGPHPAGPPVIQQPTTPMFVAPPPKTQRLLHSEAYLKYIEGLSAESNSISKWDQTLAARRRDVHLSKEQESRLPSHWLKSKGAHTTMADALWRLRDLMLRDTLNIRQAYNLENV
Assay Summary: Binding affinity to human PB1 isoform 3 expressed in BL21 (DE3)-R3-BirA cells assessed as change in melting temperature at 10 uM by sypro-orange dye-based differential scanning fluorimetric analysis
Format: cell-based
// label = Satisfied if ΔTm is not less than 2 °C, otherwise Not satisfied

Known results for compounds:
Molecule Smiles: O=C(/C=C/N1CCc2cn[nH]c2C1)c1ccccc1O
Test System: Protein polybromo-1 (Homo sapiens, UniProt Q86U86)
Classification: Not satisfied
--
Molecule Smiles: CC(C)(C)c1nc2c(n1CC1CC1)CCN(/C=C/C(=O)c1ccccc1O)C2
Test System: Protein polybromo-1 (Homo sapiens, UniProt Q86U86)
Classification: Not satisfied
--
Molecule Smiles: O=C(/C=C/N1CCN(c2ncccn2)CC1)c1ccccc1O
Test System: Protein polybromo-1 (Homo sapiens, UniProt Q86U86)
Classification: Not satisfied
--
Molecule Smiles: O=C(/C=C/N1CC2CCC(CC2)C1)c1ccccc1O
Test System: Protein polybromo-1 (Homo sapiens, UniProt Q86U86)
Classification: Satisfied
--
Molecule Smiles: CN(C)c1ncnc2c1CCN(/C=C/C(=O)c1ccccc1O)C2
Test System: Protein polybromo-1 (Homo sapiens, UniProt Q86U86)
Classification: Not satisfied

// next entry
Prompt line: Can `O=C(/C=C/N1CCc2c(ncn2Cc2ccccc2)C1)c1ccccc1O` be said to have ΔTm at or above 2 °C?
Response line: Not satisfied

----------
ΔTm: recorded values
Test System: Protein polybromo-1 (Homo sapiens)
Assay Summary: Binding affinity to human PB1 isoform 4 expressed in BL21 (DE3)-R3-BirA cells assessed as change in melting temperature at 10 uM by sypro-orange dye-based differential scanning fluorimetric analysis
Type: cell-based
Kindly answer with a numeric value in °C, unit omitted.

Previously resolved entries follow.
Molecule Smiles: O=C(/C=C/N1CCN(c2cccc(OCc3ccncc3)n2)CC1)c1ccccc1O
Value Type: ΔTm
Recorded Measurement: 1.3
//
Molecule Smiles: CC(C)(C)OC(=O)N1CCN(/C=C/C(=O)c2ccccc2O)C2(CC2)C1
Value Type: ΔTm
Recorded Measurement: 0.6
//
Molecule Smiles: O=C(/C=C/N1CCC(c2cc[nH]n2)CC1)c1ccccc1O
Value Type: ΔTm
Recorded Measurement: 1
//
Molecule Smiles: CN(C)/C=C/C(=O)c1ccccc1O
Value Type: ΔTm
Recorded Measurement: 0.7
//
Molecule Smiles: O=C(/C=C/N1CCCC1)c1ccccc1O
Value Type: ΔTm
Recorded Measurement: 0.7

Prompt line: Which measured ΔTm value corresponds to `O=C(/C=C/N1CCN(c2ncccn2)CC1)c1ccccc1O` ?
Response line: 0.6

----------
Test System: SWI/SNF-related matrix-associated actin-dependent regulator of chromatin subfamily A member 2 (Homo sapiens)
Sequence (P51531 whole entry): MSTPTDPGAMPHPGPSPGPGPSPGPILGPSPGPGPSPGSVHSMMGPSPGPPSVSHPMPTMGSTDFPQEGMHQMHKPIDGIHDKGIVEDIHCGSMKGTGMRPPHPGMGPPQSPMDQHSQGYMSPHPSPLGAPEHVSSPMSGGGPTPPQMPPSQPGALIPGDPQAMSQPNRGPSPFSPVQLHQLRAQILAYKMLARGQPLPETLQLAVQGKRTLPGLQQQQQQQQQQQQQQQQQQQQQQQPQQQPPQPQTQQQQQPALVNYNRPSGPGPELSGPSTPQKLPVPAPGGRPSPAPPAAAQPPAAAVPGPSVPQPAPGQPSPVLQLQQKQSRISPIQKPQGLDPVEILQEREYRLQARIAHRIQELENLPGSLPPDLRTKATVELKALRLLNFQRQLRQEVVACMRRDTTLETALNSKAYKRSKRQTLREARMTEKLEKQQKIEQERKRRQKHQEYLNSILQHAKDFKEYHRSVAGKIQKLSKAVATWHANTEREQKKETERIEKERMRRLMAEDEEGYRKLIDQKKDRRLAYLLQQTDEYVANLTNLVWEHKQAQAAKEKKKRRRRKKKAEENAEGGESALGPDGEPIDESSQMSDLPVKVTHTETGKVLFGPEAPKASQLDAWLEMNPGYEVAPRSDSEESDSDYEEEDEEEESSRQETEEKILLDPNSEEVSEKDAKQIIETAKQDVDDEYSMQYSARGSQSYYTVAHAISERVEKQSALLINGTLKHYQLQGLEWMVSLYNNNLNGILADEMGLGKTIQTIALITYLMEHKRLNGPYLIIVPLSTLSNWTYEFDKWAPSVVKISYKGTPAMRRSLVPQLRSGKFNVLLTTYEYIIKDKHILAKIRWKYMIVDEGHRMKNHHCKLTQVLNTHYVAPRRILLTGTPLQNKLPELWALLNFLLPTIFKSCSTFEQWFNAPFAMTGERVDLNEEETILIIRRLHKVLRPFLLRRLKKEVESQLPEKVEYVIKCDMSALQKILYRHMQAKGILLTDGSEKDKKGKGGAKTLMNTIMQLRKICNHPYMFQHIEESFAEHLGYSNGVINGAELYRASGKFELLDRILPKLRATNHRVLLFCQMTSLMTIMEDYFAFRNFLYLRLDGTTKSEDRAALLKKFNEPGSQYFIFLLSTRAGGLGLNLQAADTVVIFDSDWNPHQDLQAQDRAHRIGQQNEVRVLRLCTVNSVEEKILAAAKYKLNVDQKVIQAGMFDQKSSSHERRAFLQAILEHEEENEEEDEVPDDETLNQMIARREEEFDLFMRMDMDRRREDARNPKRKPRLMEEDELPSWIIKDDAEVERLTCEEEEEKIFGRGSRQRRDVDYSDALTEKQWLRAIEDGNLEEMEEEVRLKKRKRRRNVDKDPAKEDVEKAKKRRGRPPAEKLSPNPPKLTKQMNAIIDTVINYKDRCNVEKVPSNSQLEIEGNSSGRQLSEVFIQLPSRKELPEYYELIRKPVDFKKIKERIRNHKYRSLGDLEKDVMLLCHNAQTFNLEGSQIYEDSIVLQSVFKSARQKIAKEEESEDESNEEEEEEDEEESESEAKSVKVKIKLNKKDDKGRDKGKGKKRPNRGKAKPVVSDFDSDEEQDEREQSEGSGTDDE
Assay Summary: Binding affinity to human SMARC2B expressed in BL21 (DE3)-R3-BirA cells assessed as change in melting temperature at 10 uM by sypro-orange dye-based differential scanning fluorimetric analysis
Format: cell-based
ΔTm: recorded values

Previously resolved entries follow.
Molecule Smiles: O=C(/C=C/N1CCc2cn[nH]c2C1)c1ccccc1O
ΔTm: 4.8 °C
--
Molecule Smiles: CC(C)(C)c1nc2c(n1CC1CC1)CCN(/C=C/C(=O)c1ccccc1O)C2
ΔTm: 3.8 °C
--
Molecule Smiles: O=C(/C=C/N1C[C@H]2C[C@@H]1CN2c1ccccn1)c1ccccc1O
ΔTm: 5 °C
--
Molecule Smiles: O=C(/C=C/N1CCCC1)c1ccccc1O
ΔTm: 3 °C
--
Molecule Smiles: CN(C)/C=C/C(=O)c1ccccc1O
ΔTm: 2 °C

Prompt line: Which measured ΔTm value corresponds to `CN(C)c1ncnc2c1CCN(/C=C/C(=O)c1ccccc1O)C2` ?
Response line: 2.2 °C

Prompt line: Which measured ΔTm value corresponds to `O=C(/C=C/N1CCN(c2cccc(OCc3ccncc3)n2)CC1)c1ccccc1O` ?
Response line: 3.7 °C
